Target: T1, Ac-CWAcp-PPPALPPKKR.amide, C3G-derived peptide designed for attachment to an affinity column (N-terminal acetyl; ε-aminocaproic acid (Acp, B) at position 3; C-terminal amide; on the column the Cys side chain is coupled to iodoacetyl agarose (Sulfolink))
T1 construct: also called Acetyl-CWAcp-C3G; Ac-CWBPPPALPPKKR.amide
T1 peptide: CWPPPALPPKKR
Test: 19-member array on C3G peptide affinity column, MALDI MS readout
ASSAY READOUT: binding result

BINDER	binding result
c-Crk N-terminal SH3 domain (134-191) analogue, dipeptide FK (153-154) replaced by Gly-[COS]-βAla (other, not fully specified; Gly-[COS]-βAla unit (-NH-CH2-CO-S-CH2-CH2-CO-) in place of F153-K154; backbone thioester, It is one of the 19 dipeptide positions within c-Crk(146-165); Positions count on murine c-Crk; X = -S-CH2CH2-CO- unit; Tested crude in a pooled array) AEYVRALFDFNGNDEEDLPGXKGDILRIRDKPEEQWWNAEDSEGKRGMIPVPYVEKYR	no binding
c-Crk N-terminal SH3 domain (134-191) analogue, E^148E^149 replaced by Gly-[COS]-βAla (other, not fully specified; Gly-[COS]-βAla unit (-NH-CH2-CO-S-CH2-CH2-CO-) in place of E148-E149; backbone thioester, Positions count on murine c-Crk; X = -S-CH2CH2-CO- unit; Tested crude in a pooled array) AEYVRALFDFNGNDGXDLPFKKGDILRIRDKPEEQWWNAEDSEGKRGMIPVPYVEKYR	binds
c-Crk N-terminal SH3 domain (134-191) analogue, D^147E^148 replaced by Gly-[COS]-βAla (other, not fully specified; Gly-[COS]-βAla unit (-NH-CH2-CO-S-CH2-CH2-CO-) in place of D147-E148; backbone thioester, Positions count on murine c-Crk; X = -S-CH2CH2-CO- unit; Tested crude in a pooled array; also called DE) AEYVRALFDFNGNGXEDLPFKKGDILRIRDKPEEQWWNAEDSEGKRGMIPVPYVEKYR	binds
c-Crk N-terminal SH3 domain (134-191) analogue, dipeptide PF (152-153) replaced by Gly-[COS]-βAla (other, not fully specified; Gly-[COS]-βAla unit (-NH-CH2-CO-S-CH2-CH2-CO-) in place of P152-F153; backbone thioester, It is one of the 19 dipeptide positions within c-Crk(146-165); Positions count on murine c-Crk; X = -S-CH2CH2-CO- unit; Tested crude in a pooled array) AEYVRALFDFNGNDEEDLGXKKGDILRIRDKPEEQWWNAEDSEGKRGMIPVPYVEKYR	no binding
c-Crk N-terminal SH3 domain (134-191) analogue, R^162D^163 replaced by Gly-[COS]-βAla (other, not fully specified; Gly-[COS]-βAla unit (-NH-CH2-CO-S-CH2-CH2-CO-) in place of R162-D163; backbone thioester, Positions count on murine c-Crk; X = -S-CH2CH2-CO- unit; also called RD; Gly-SβAla analogue) AEYVRALFDFNGNDEEDLPFKKGDILRIGXKPEEQWWNAEDSEGKRGMIPVPYVEKYR	binds

Input: For the binder shown here, c-Crk N-terminal SH3 domain (134-191) analogue, K^164P^165 replaced by Gly-[COS]-βAla (other, not fully specified; Gly-[COS]-βAla unit (-NH-CH2-CO-S-CH2-CH2-CO-) in place of K164-P165; backbone thioester, Positions count on murine c-Crk; X = -S-CH2CH2-CO- unit; also called KP; Gly-SβAla analogue) AEYVRALFDFNGNDEEDLPFKKGDILRIRDGXEEQWWNAEDSEGKRGMIPVPYVEKYR , give the reported binding result.
Output: binds

Input: Now the binder c-Crk N-terminal SH3 domain (134-191) analogue, D^163K^164 replaced by Gly-[COS]-βAla (other, not fully specified; Gly-[COS]-βAla unit (-NH-CH2-CO-S-CH2-CH2-CO-) in place of D163-K164; backbone thioester, Positions count on murine c-Crk; X = -S-CH2CH2-CO- unit; also called DK; Gly-SβAla analogue) AEYVRALFDFNGNDEEDLPFKKGDILRIRGXPEEQWWNAEDSEGKRGMIPVPYVEKYR
Output: binds

Input: Now the binder c-Crk N-terminal SH3 domain (134-191) analogue, N^146D^147 replaced by Gly-[COS]-βAla (other, not fully specified; Gly-[COS]-βAla unit (-NH-CH2-CO-S-CH2-CH2-CO-) in place of N146-D147; backbone thioester, Positions count on murine c-Crk; X = -S-CH2CH2-CO- unit; Tested crude in a pooled array; also called ND) AEYVRALFDFNGGXEEDLPFKKGDILRIRDKPEEQWWNAEDSEGKRGMIPVPYVEKYR
Output: binds

Input: Now the binder c-Crk N-terminal SH3 domain (134-191) analogue, L^151P^152 replaced by Gly-[COS]-βAla (other, not fully specified; Gly-[COS]-βAla unit (-NH-CH2-CO-S-CH2-CH2-CO-) in place of L151-P152; backbone thioester, Positions count on murine c-Crk; X = -S-CH2CH2-CO- unit; Tested crude in a pooled array; also called LP) AEYVRALFDFNGNDEEDGXFKKGDILRIRDKPEEQWWNAEDSEGKRGMIPVPYVEKYR
Output: binds

Input: Now the binder c-Crk N-terminal SH3 domain (134-191) analogue, dipeptide ED (149-150) replaced by Gly-[COS]-βAla (other, not fully specified; Gly-[COS]-βAla unit (-NH-CH2-CO-S-CH2-CH2-CO-) in place of E149-D150; backbone thioester, Positions count on murine c-Crk; X = -S-CH2CH2-CO- unit; Tested crude in a pooled array) AEYVRALFDFNGNDEGXLPFKKGDILRIRDKPEEQWWNAEDSEGKRGMIPVPYVEKYR
Output: no binding

Input: Now the binder c-Crk N-terminal SH3 domain (134-191) analogue, I^161R^162 replaced by Gly-[COS]-βAla (other, not fully specified; Gly-[COS]-βAla unit (-NH-CH2-CO-S-CH2-CH2-CO-) in place of I161-R162; backbone thioester, Positions count on murine c-Crk; X = -S-CH2CH2-CO- unit; also called IR; Gly-SβAla analogue) AEYVRALFDFNGNDEEDLPFKKGDILRGXDKPEEQWWNAEDSEGKRGMIPVPYVEKYR
Output: binds

Input: Now the binder c-Crk N-terminal SH3 domain (134-191) analogue, dipeptide KK (154-155) replaced by Gly-[COS]-βAla (other, not fully specified; Gly-[COS]-βAla unit (-NH-CH2-CO-S-CH2-CH2-CO-) in place of K154-K155; backbone thioester, It is one of the 19 dipeptide positions within c-Crk(146-165); Positions count on murine c-Crk; X = -S-CH2CH2-CO- unit; Tested crude in a pooled array) AEYVRALFDFNGNDEEDLPFGXGDILRIRDKPEEQWWNAEDSEGKRGMIPVPYVEKYR
Output: no binding

Input: Now the binder c-Crk N-terminal SH3 domain (134-191) analogue, dipeptide DI (157-158) replaced by Gly-[COS]-βAla (other, not fully specified; Gly-[COS]-βAla unit (-NH-CH2-CO-S-CH2-CH2-CO-) in place of D157-I158; backbone thioester, Positions count on murine c-Crk; X = -S-CH2CH2-CO- unit; also called Gly-SβAla analogue) AEYVRALFDFNGNDEEDLPFKKGGXLRIRDKPEEQWWNAEDSEGKRGMIPVPYVEKYR
Output: no binding

Input: Now the binder c-Crk N-terminal SH3 domain (134-191) analogue, dipeptide RI (160-161) replaced by Gly-[COS]-βAla (other, not fully specified; Gly-[COS]-βAla unit (-NH-CH2-CO-S-CH2-CH2-CO-) in place of R160-I161; backbone thioester, Positions count on murine c-Crk; X = -S-CH2CH2-CO- unit; also called Gly-SβAla analogue) AEYVRALFDFNGNDEEDLPFKKGDILGXRDKPEEQWWNAEDSEGKRGMIPVPYVEKYR
Output: no binding

Input: Now the binder c-Crk N-terminal SH3 domain (134-191) analogue, dipeptide IL (158-159) replaced by Gly-[COS]-βAla (other, not fully specified; Gly-[COS]-βAla unit (-NH-CH2-CO-S-CH2-CH2-CO-) in place of I158-L159; backbone thioester, Positions count on murine c-Crk; X = -S-CH2CH2-CO- unit; also called Gly-SβAla analogue) AEYVRALFDFNGNDEEDLPFKKGDGXRIRDKPEEQWWNAEDSEGKRGMIPVPYVEKYR
Output: no binding
